- Protocol summary: xn = mol fraction of the nth substance listed, in the solute-free solvent
- Assay conditions: 303.15 K; x2 = 0.2068
Reported metric: solubility (g/100 g solution)
// return a plain number; no unit text

COC(=O)C1=C(C)NC(C)=C(C(=O)OCC(C)C)C1c1ccccc1[N+](=O)[O-] (centres undefined) + CCO + O = 3.28
CS(=O)(=O)c1ccc(C(O)C(CF)NC(=O)C(Cl)Cl)cc1 (centres undefined) + CCO + O = 1.76
CC(=O)Nc1ccc(OC(=O)c2ccccc2OC(C)=O)cc1 + CCO + O = 0.166

# next compound below
Sure, the documented solubility (g/100 g solution) for O=[N+]([O-])c1cc[nH]n1 + CCO + O is 1.18

Measured values drawn from the CheMixHub drug solubility set for this set.
